test system: Vero cell line (C1008; Monkey kidney fibroblast); assay: in vitro; conditions: 72 h
Labelling field: enter true if recorded CC50 is less than 40 µM. Enter false if it equals or exceeds that cut-off.

Prompt: Lab log: compare recorded CC50 with 40 µM; is it strictly lower for CCCC(=O)NC[C@@H](OC(=O)/C=C/c1ccccc1)c1ccc(OC)c(OC)c1 [Compound 51] ?
Completion: false

Prompt: Lab log: compare recorded CC50 with 40 µM; is it strictly lower for O=C(/C=C/c1ccccc1)OC[C@H](OC(=O)/C=C/c1ccccc1)c1ccc2ccccc2c1 [Compound 54] ?
Completion: false

Prompt: Lab log: compare recorded CC50 with 40 µM; is it strictly lower for COc1ccc([C@@H](CNC(=O)/C=C/c2ccccc2)OC(=O)CCc2ccccc2)cc1OC [Compound 49] ?
Completion: true

Prompt: Lab log: compare recorded CC50 with 40 µM; is it strictly lower for COc1ccc([C@@H](CNC(=O)CCc2ccccc2)OC(=O)/C=C/c2ccccc2)cc1OC [Compound 50] ?
Completion: false

Prompt: Lab log: compare recorded CC50 with 40 µM; is it strictly lower for CCCC(=O)O[C@H](CNC(=O)/C=C/c1ccccc1)c1ccc(OC)c(OC)c1 [Compound 52] ?
Completion: true

Prompt: Lab log: compare recorded CC50 with 40 µM; is it strictly lower for O=C(/C=C/c1ccccc1)OC[C@@H](OC(=O)/C=C/c1ccccc1)c1ccc2ccccc2c1 [Compound 53] ?
Completion: false

---

test system: Chloroquine-sensitive (3D7) strain of P. falciparum; assay: Malaria SYBR Green I-based fluorescence (MSF) assay, 3D7 strain; type: cell-based; conditions: Plasmodium falciparum; P. falciparum 3D7, 72 hours incubation; read-out: IC50 against 3D7
pIC50: −log10 of the molar value.
Readout kind: pIC50

Prompt: Tell me its pIC50 on Chloroquine-sensitive (3D7) strain of P. falciparum: O=C(/C=C/c1ccccc1)OC[C@H](OC(=O)/C=C/c1ccccc1)c1ccccc1
Completion: < 5.30

Prompt: Tell me its pIC50 on Chloroquine-sensitive (3D7) strain of P. falciparum: COc1ccc([C@H](COC(=O)/C=C/c2ccccc2)OC(=O)/C=C/c2ccccc2)cc1
Completion: < 5.30

Prompt: Tell me its pIC50 on Chloroquine-sensitive (3D7) strain of P. falciparum: COc1cccc([C@@H](CNC(=O)/C=C/c2ccccc2)OC(=O)/C=C/c2ccccc2)c1
Completion: < 5.30

Prompt: Tell me its pIC50 on Chloroquine-sensitive (3D7) strain of P. falciparum: O=C(/C=C/c1ccccc1)OC[C@H](OC(=O)/C=C/c1ccccc1)c1ccc2c(c1)OCO2
Completion: < 5.30

Prompt: Tell me its pIC50 on Chloroquine-sensitive (3D7) strain of P. falciparum: COc1cc([C@@H](COC(=O)/C=C/c2ccccc2)OC(=O)/C=C/c2ccccc2)cc(OC)c1OC
Completion: 5.47

Prompt: Tell me its pIC50 on Chloroquine-sensitive (3D7) strain of P. falciparum: COc1ccc([C@H](CNC(=O)/C=C/c2ccccc2)OC(=O)/C=C/c2ccccc2)cc1
Completion: < 5.30

Prompt: Tell me its pIC50 on Chloroquine-sensitive (3D7) strain of P. falciparum: O=C(/C=C/c1ccccc1)NC[C@H](OC(=O)/C=C/c1ccccc1)c1ccccc1
Completion: 5.33

Prompt: Tell me its pIC50 on Chloroquine-sensitive (3D7) strain of P. falciparum: COc1cc([C@@H](CNC(=O)/C=C/c2ccccc2)OC(=O)/C=C/c2ccccc2)cc(OC)c1OC
Completion: 5.17

The measured values listed here are drawn from patent US10519098B2.
